Please respond with reported combination Emax for every item in the list.
# System: PANC-08-13 (Pancreatic Carcinoma)
# ASSAY EXPLANATION: combination Emax (second highest fraction inhibited in the dose matrix, 72 h); higher = more inhibition; extreme values may be limits of the assay

stdin: Field request: combination Emax | item: CC(=O)Nc1cccc(-n2c(=O)n(C3CC3)c(=O)c3c(Nc4ccc(I)cc4F)n(C)c(=O)c(C)c32)c1 [Trametinib] + Cc1nc(-c2cn3c(n2)-c2ccc(-c4cnn(C(C)(C)C(N)=O)c4)cc2OCC3)n(C(C)C)n1 [Taselisib] (first compound max 1 µM, 7x7, partner max 10 µM)
stdout: 0.655

stdin: For COc1nnc2ccc(N3CCC(c4ccc(OCCN5CCN(C)C(=O)[C@H]5C)cc4)CC3)nn12 [AZD5153] + Cc1c2c(nn1C)CSCc1cc(n(C)n1)CSc1cc(c3ccccc3c1)OCCCc1c(C(=O)O)n(C)c3c-2c(Cl)ccc13 [AZD5991] (first compound max 1 µM, 7x7, partner max 1 µM) , what is its reported combination Emax?
stdout: 0.825

* * *

# Tested on: SW837 (Colorectal Carcinoma)
# ASSAY EXPLANATION: Bliss excess, mean over the matrix (fraction); higher = more synergy
READOUT NAME: Bliss excess
Enter the number alone.

stdin: I would be grateful if you could share the reported Bliss excess for Cc1c2c(nn1C)CSCc1cc(n(C)n1)CSc1cc(c3ccccc3c1)OCCCc1c(C(=O)O)n(C)c3c-2c(Cl)ccc13 [AZD5991] + C1CN(CCC1(C(=O)N[C@@H](CCO)C2=CC=C(C=C2)Cl)N)C3=NC=NC4=C3C=CN4 [Capivasertib] (first compound max 1 µM, 7x7, partner max 3 µM) .
stdout: -0.0191

stdin: Quick one: Bliss excess for CN(CCO)CC[C@H](CSc1ccccc1)Nc1ccc(S(=O)(=O)NC(=O)c2ccc(N3CCC([C@@H](O)c4ccccc4-c4ccc(Cl)cc4)CC3)cc2)cc1S(=O)(=O)C(F)(F)F [AZD4320] + C[C@@H]1COCCN1C2=NC(=NC(=C2)C3(CC3)[S@](=N)(=O)C)C4=C5C=CNC5=NC=C4 [AZD6738] (first compound max 1 µM, 7x7, partner max 10 µM) ?
stdout: -0.0618

stdin: Fill in: Bliss excess of CC1(C)CCC(CN2CCN(c3ccc(C(=O)NS(=O)(=O)c4ccc(NCC5CCOCC5)c([N+](=O)[O-])c4)c(Oc4cnc5[nH]ccc5c4)c3)CC2)=C(c2ccc(Cl)cc2)C1 [Venetoclax] + COc1cc(Nc2ncc3c(n2)-c2ccc(Cl)cc2C(c2c(F)cccc2OC)=NC3)ccc1C(=O)O [Alisertib] (first compound max 1 µM, 7x7, partner max 10 µM) is ___
stdout: -0.0319

* * *

# Tested on: L-540 (Hodgkin's Lymphoma)
# ASSAY EXPLANATION: combination Emax (second highest fraction inhibited in the dose matrix, 72 h); higher = more inhibition; extreme values may be limits of the assay
Response key: Fulfilled means combination Emax >= 0.9; Not fulfilled means combination Emax < 0.9.

stdin: For this compound, is measured combination Emax 0.9 or higher? COc1cccc(OCCCN)c1-c1cc(Nc2cnc(C#N)cn2)n[nH]1 [Prexasertib] + CCc1c2c(nc3ccc(O)cc13)-c1cc3c(c(=O)n1C2)COC(=O)[C@]3(O)CC [SN-38] (first compound max 1 µM, 7x7, partner max 0.3 µM)
stdout: Fulfilled

stdin: Evaluate C[C@@H](Nc1cc(F)cc(F)c1)c1cc(C(=O)N(C)C)cc2c(=O)cc(N3CCOCC3)oc12 [AZD8186] + C1CN(CCC1(C(=O)N[C@@H](CCO)C2=CC=C(C=C2)Cl)N)C3=NC=NC4=C3C=CN4 [AZD5363] (first compound max 10 µM, 7x7, partner max 10 µM) : combination Emax at minimum 0.9?
stdout: Not fulfilled

stdin: Item C[C@@H]1COCCN1c1cc(C2([S@](C)(=N)=O)CC2)nc(-c2ccnc3[nH]ccc23)n1 [AZD6738] + O=C(c1cc(Cc2n[nH]c(=O)c3ccccc23)ccc1F)N1CCN(C(=O)C2CC2)CC1 [Olaparib] (first compound max 10 µM, 7x7, partner max 10 µM) with combination Emax of 0.9 or above?
stdout: Fulfilled

stdin: Quick check, combination Emax >= 0.9? C=CCn1c(=O)c2cnc(Nc3ccc(N4CCN(C)CC4)cc3)nc2n1-c1cccc(C(C)(C)O)n1 [AZD1775] + C1CN(CCC1(C(=O)N[C@@H](CCO)C2=CC=C(C=C2)Cl)N)C3=NC=NC4=C3C=CN4 [Capivasertib] (first compound max 3 µM, partner max 3 µM)
stdout: Not fulfilled

stdin: Identify whether the reported combination Emax of the following compound is 0.9 or greater: CC(=O)c1c(C)c2cnc(Nc3ccc(N4CCNCC4)cn3)nc2n(C2CCCC2)c1=O [Palbociclib] + Cc1c2c(nn1C)CSCc1cc(n(C)n1)CSc1cc(c3ccccc3c1)OCCCc1c(C(=O)O)n(C)c3c-2c(Cl)ccc13 [AZD5991] (first compound max 10 µM, 7x7, partner max 1 µM)
stdout: Fulfilled

* * *

# Tested on: DND-41 (T-Lymphoblastic Leukemia)
# ASSAY EXPLANATION: combination Emax (second highest fraction inhibited in the dose matrix, 72 h); higher = more inhibition; extreme values may be limits of the assay
READOUT NAME: combination Emax

stdin: Reported combination Emax, compound Cc1cc2ncnn2cc1Nc1ncc2c(n1)n(C1CCOCC1)c(=O)n2C [AZD7648] + COc1cc([C@@H]2c3cc4c(cc3[C@@H](O[C@@H]3O[C@@H]5CO[C@@H](C)O[C@H]5[C@H](O)[C@H]3O)[C@H]3COC(=O)[C@H]23)OCO4)cc(OC)c1O [Etoposide] (first compound max 10 µM, 7x7, partner max 10 µM) : ____
stdout: 0.967

stdin: So what's the measured combination Emax for this one? Cc1cc2ncnn2cc1Nc1ncc2c(n1)n(C1CCOCC1)c(=O)n2C [AZD7648] + C=CCn1c(=O)c2cnc(Nc3ccc(N4CCN(C)CC4)cc3)nc2n1-c1cccc(C(C)(C)O)n1 [AZD1775] (first compound max 10 µM, partner max 1 µM)
stdout: 0.813

stdin: Name the recorded combination Emax for Cc1c2c(nn1C)CSCc1cc(n(C)n1)CSc1cc(c3ccccc3c1)OCCCc1c(C(=O)O)n(C)c3c-2c(Cl)ccc13 [AZD5991] + Cn1cnc2c(F)c(Nc3ccc(Br)cc3Cl)c(C(=O)NOCCO)cc21 [Selumetinib] (first compound max 1 µM, 7x7, partner max 3 µM) .
stdout: 0.181

stdin: Quick one: combination Emax of Cc1c2c(nn1C)CSCc1cc(n(C)n1)CSc1cc(c3ccccc3c1)OCCCc1c(C(=O)O)n(C)c3c-2c(Cl)ccc13 [AZD5991] + CN(C)CCCOc1ccc(-c2ccc3ncc4c(c3c2)n(C2CCOCC2)c(=O)n4C)cn1 [AZD0156] (first compound max 1 µM, 7x7, partner max 1 µM) ?
stdout: 0.158

* * *

Provide the recorded combination Emax for the entries that follow.
# Tested on: ES8 (Ewing's Sarcoma)
# ASSAY EXPLANATION: combination Emax (second highest fraction inhibited in the dose matrix, 72 h); higher = more inhibition; extreme values may be limits of the assay
I only need the number, thanks.

stdin: Name the recorded combination Emax for CN(CCO)CC[C@H](CSc1ccccc1)Nc1ccc(S(=O)(=O)NC(=O)c2ccc(N3CCC([C@@H](O)c4ccccc4-c4ccc(Cl)cc4)CC3)cc2)cc1S(=O)(=O)C(F)(F)F [AZD4320] + C[C@@H]1COCCN1C2=NC(=NC(=C2)C3(CC3)[S@](=N)(=O)C)C4=C5C=CNC5=NC=C4 [AZD6738] (first compound max 1 µM, 7x7, partner max 10 µM) .
stdout: 1

stdin: Return reported combination Emax; argument: CC(=O)c1c(C)c2cnc(Nc3ccc(N4CCNCC4)cn3)nc2n(C2CCCC2)c1=O [Palbociclib] + Cn1cnc2c(F)c(Nc3ccc(Br)cc3Cl)c(C(=O)NOCCO)cc21 [Selumetinib] (first compound max 10 µM, 7x7, partner max 10 µM)
stdout: 0.823

stdin: Name the reported combination Emax value associated with the molecule CC1(C)CCC(CN2CCN(c3ccc(C(=O)NS(=O)(=O)c4ccc(NCC5CCOCC5)c([N+](=O)[O-])c4)c(Oc4cnc5[nH]ccc5c4)c3)CC2)=C(c2ccc(Cl)cc2)C1 [Venetoclax] + C[C@@H](Nc1cc(F)cc(F)c1)c1cc(C(=O)N(C)C)cc2c(=O)cc(N3CCOCC3)oc12 [AZD8186] (first compound max 1 µM, 7x7, partner max 3 µM)
stdout: 0.834

* * *

# Test system: KM12 (Colorectal Carcinoma)
# ASSAY EXPLANATION: Bliss excess, mean over the matrix (fraction); higher = more synergy
READOUT NAME: Bliss excess
Please respond with just the number, no unit label.

stdin: What value of Bliss excess has been recorded for this entry: CN(CCO)CC[C@H](CSc1ccccc1)Nc1ccc(S(=O)(=O)NC(=O)c2ccc(N3CCC([C@@H](O)c4ccccc4-c4ccc(Cl)cc4)CC3)cc2)cc1S(=O)(=O)C(F)(F)F [AZD4320] + C1CN(CCC1(C(=O)N[C@@H](CCO)C2=CC=C(C=C2)Cl)N)C3=NC=NC4=C3C=CN4 [Capivasertib] (first compound max 1 µM, 7x7, partner max 3 µM)
stdout: -0.0572

stdin: So what's the measured Bliss excess for this one? Cc1c2c(nn1C)CSCc1cc(n(C)n1)CSc1cc(c3ccccc3c1)OCCCc1c(C(=O)O)n(C)c3c-2c(Cl)ccc13 [AZD5991] + C=CCn1c(=O)c2cnc(Nc3ccc(N4CCN(C)CC4)cc3)nc2n1-c1cccc(C(C)(C)O)n1 [AZD1775] (first compound max 1 µM, partner max 1 µM)
stdout: 0.0031
